biological target: GSPT1 (Homo sapiens); construct: Whole cell extracts were prepared using RIPA buffer according to manufacturer's protocol (Pierce); endogenous in cells; test: GSPT1 protein levels by Western Blot analysis; type: cell-based; conditions: 100 nM compound concentration; DMSO = 100.00
Sequence (P15170 whole entry): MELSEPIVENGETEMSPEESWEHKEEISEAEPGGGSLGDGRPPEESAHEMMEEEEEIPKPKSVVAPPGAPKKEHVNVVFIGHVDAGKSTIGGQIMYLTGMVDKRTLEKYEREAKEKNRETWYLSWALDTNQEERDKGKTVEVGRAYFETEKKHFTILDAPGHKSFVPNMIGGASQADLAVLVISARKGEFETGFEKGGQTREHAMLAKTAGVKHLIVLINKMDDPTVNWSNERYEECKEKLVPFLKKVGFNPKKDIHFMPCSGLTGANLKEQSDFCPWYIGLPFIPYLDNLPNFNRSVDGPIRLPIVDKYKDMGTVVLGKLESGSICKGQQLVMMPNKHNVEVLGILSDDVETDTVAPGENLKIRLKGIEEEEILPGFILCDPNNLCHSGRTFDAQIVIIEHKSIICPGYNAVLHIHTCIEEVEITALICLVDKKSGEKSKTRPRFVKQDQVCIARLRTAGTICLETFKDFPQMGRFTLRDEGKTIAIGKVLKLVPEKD
Sequence (Q96SW2 whole entry, further chain): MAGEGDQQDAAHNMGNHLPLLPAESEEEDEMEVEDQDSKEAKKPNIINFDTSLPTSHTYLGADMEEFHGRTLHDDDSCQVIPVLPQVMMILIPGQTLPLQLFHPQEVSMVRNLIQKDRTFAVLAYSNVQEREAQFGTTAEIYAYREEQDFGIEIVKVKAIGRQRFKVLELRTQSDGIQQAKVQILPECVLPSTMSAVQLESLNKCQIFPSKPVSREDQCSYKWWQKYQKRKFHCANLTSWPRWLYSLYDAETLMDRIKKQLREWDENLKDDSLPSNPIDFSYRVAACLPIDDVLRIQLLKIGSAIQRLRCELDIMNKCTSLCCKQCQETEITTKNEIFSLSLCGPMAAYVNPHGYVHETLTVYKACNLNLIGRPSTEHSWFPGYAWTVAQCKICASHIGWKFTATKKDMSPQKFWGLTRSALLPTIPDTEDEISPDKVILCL
Sequence (Q16531 whole entry partner): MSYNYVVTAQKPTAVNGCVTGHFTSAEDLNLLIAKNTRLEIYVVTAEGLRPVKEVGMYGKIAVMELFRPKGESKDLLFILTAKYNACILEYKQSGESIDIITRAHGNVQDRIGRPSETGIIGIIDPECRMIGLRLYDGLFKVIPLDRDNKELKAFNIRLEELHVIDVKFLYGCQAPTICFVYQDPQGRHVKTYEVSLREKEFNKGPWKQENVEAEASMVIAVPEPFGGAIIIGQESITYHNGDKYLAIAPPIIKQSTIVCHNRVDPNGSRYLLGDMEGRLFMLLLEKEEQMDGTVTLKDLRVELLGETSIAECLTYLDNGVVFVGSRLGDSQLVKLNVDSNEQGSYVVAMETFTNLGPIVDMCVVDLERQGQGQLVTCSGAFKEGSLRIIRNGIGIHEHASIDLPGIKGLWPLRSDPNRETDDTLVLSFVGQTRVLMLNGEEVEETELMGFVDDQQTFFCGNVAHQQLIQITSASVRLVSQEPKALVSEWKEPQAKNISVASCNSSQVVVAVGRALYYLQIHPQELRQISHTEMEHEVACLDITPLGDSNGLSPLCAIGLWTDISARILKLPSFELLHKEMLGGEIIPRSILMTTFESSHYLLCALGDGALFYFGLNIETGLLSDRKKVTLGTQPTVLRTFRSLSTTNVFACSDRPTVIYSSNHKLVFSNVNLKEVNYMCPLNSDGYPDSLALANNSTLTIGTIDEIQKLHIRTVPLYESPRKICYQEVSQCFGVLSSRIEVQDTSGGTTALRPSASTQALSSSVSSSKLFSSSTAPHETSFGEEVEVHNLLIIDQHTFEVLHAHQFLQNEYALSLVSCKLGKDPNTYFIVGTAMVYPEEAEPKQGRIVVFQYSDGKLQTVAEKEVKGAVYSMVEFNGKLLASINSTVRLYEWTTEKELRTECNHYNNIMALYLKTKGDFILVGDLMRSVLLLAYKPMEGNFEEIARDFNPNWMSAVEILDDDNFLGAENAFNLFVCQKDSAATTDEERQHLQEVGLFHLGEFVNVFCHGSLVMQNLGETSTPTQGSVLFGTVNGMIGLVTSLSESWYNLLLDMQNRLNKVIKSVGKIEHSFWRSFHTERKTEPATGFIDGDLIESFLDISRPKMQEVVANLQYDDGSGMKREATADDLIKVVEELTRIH
remaining activity at 0.1 µM listing for selected compounds.
Write it as a number; the unit % goes unstated.

Value wanted: remaining activity at 0.1 µM (GSPT1 (Homo sapiens)) of entry Cc1ccc(CNC(=O)NCc2cc3c(s2)C(=O)N(C2CCC(=O)NC2=O)C3)cc1Cl (centres unmarked)
57.3

GSPT1 (Homo sapiens) / remaining activity at 0.1 µM / Cc1ccc(NC(=O)NCc2scc3c2CN(C2CCC(=O)NC2=O)C3=O)cc1Cl (centres unmarked) : value?
6.77

Find remaining activity at 0.1 µM (GSPT1 (Homo sapiens)) for the entry Cc1cc(C)c(NC(=O)NCc2scc3c2CN(C2CCC(=O)NC2=O)C3=O)cc1Cl (centres unmarked)
11.9

Quick check: remaining activity at 0.1 µM on GSPT1 (Homo sapiens), item O=C1CCC[C@H](N2Cc3c(csc3CNC(=O)Nc3ccc(C(F)(F)F)c(Cl)c3)C2=O)C(=O)N1 ?
61.7

---
Checklist item: remaining activity at 0.1 µM tested on GSPT1 (Homo sapiens), entry Cc1ccc(NC(=S)NCc2scc3c2CN([C@H]2CCCC(=O)NC2=O)C3=O)cc1Cl , value?
55.2

Fill in the recorded remaining activity at 0.1 µM for this compound, with GSPT1 (Homo sapiens) as test system: O=C1CCC(N2Cc3c(csc3CNC(=O)Nc3ccc(C(F)(F)F)c(Cl)c3)C2=O)C(=O)N1 (centres unmarked)
1.51

Request body: readout remaining activity at 0.1 µM, system GSPT1 (Homo sapiens), query Cc1ccc(CC(=O)NCc2scc3c2CN([C@H]2CCCC(=O)NC2=O)C3=O)cc1Cl . Return the value.
131

Give recorded remaining activity at 0.1 µM with GSPT1 (Homo sapiens) for the following compound: Cc1c(Cl)cc(NC(=O)NCc2scc3c2CN(C2CCC(=O)NC2=O)C3=O)cc1C(C)C (centres unmarked)
1.46

Just for reference, patent US10040804B2 is where these values come from.
